# Assay: NCI Yeast Anticancer Drug Screen. Data for the sgs1 strain (AID 173);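 further: 0% = growth of vehicle-only control cultures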
# Measurement Setup: S. cerevisiae sgs1 mutant, at 3.7 µM, active compounds read high
# Description: Growth inhibition of yeast strains with defined genetic alterations is measured as a screen for potential anti-cancer activity. Selected strains with alterations in DNA damage repair or cell cycle control were exposed to compounds and growth inhibition was measured relative to vehicle treated controls. The strain used in this assay is sgs1
Compounds without any hit were thinned out: in the full panel of roughly 79,000, 15% have a hit.
For each record, write down the corresponding growth inhibition.
Give bare numbers, in %.

# Compound, Scale Unit, growth inhibition
records = [
    ("O=c1c2ccccc2nc(-c2cccc([N+](=O)[O-])c2)n1O", "%", 72),
    ("O=[N+]([O-])c1cn[n+]([O-])c2ccccc12", "%", 71),
    ("CC(C)N(CCCNc1c2ccccc2nc2cccc([N+](=O)[O-])c12)C(C)C", "%", 91),
]

For each listed entry, give its growth inhibition.
1. COC1=CCC23C(=O)C=CC(=O)C2(C1)C(=O)c1ccccc1C3=O (stereo not given)
2. Cc1cc(C)c(S(=O)(=O)c2ccc(Cl)cc2)c(C)c1
3. Nc1cc2c(cc1N)-c1ccccc1C2=O
4. O=Cc1ccccc1C=O
5. NC(=S)N1N=C2c3ccccc3CC[C@H]2[C@@H]1c1ccc(Cl)cc1
6. NCCOc1ccc(/C(=C(/Cl)c2ccccc2)c2ccccc2)cc1

Result block:
[-6, 0, -3, -25, 33, 23]

For each listed entry, give its growth inhibition.
1. COc1ccc(-c2cc(-c3cc(C)cc(Cl)c3O)nc3[nH]c(=S)[nH]c(=S)c23)cc1
2. Cc1ccccc1NC(=O)c1c(C)oc2c1C(=O)c1ccccc1C2=O
3. COc1ccc(C(C)c2cc3c(cc2OC(C)O)OCO3)cc1 (stereo not given)
4. O=[N+]([O-])c1ccc2nc(=S)[nH]n2c1
5. CCCCCCCCCCCCCCCCCCNC(=S)/N=C/c1c(O)c2ccccc2[nH]c1=O
6. CCC[CH2][Sn]([CH2]CCC)([CH2]CCC)/[C](=C/[Si](C)(C)c1ccccc1)c1ccc2c(c1)OCO2

Result block:
1. -2
2. -15
3. -1
4. -2
5. 3
6. 44

----------
# Assay: NCI Yeast Anticancer Drug Screen. Data for the mec2-1 strain (AID 157)
# Measurement Setup: S. cerevisiae mec2-1 strain, at 33.0 µM
About 79,000 compounds went through this panel and 15% of them were active in at least one assay; those are over-represented in the sample as a whole. The source made the active and inactive calls. No stated cut-off is given here; in the data, active means growth inhibition above about 70%; inactive means the rest.
Just give me one of these, please: yes (1) for active, no (0) for inactive

Would you please look over these solved cases?
# Molecule, Assigned Label
rows = [
    ("O=[N+]([O-])c1cc[n+]([O-])c(Cl)c1", "yes (1)"),
    ("COc1ccc2cc3c4cc5c(cc4cc[n+]3cc2c1OC)OCO5", "yes (1)"),
    ("O=C(Oc1ccc([N+](=O)[O-])cc1)c1ccc([N+](=O)[O-])cc1", "no (0)"),
    ("CC(C)OC(=O)NNc1cc(Cl)ccc1Cl", "no (0)"),
    ("O=C1c2ccccc2C(=O)c2c(O)c(NCCNCCO)cc(O)c21", "yes (1)"),
]

# ---- query molecule ----
Query block: Could you please tell me the result logged for "O=C1C=C(NCCc2cc(Br)c(O)c(Br)c2)C(=O)c2ncccc21" in this assay?
Result block: no (0)

----------
# Assay: NCI Yeast Anticancer Drug Screen. Data for the rad50 strain (AID 155);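 further: 0% = growth of vehicle-only cultures of the same strain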
# Measurement Setup: S. cerevisiae rad50 strain growth inhibition; at 50.0 µM; active compounds read high
# Experimental: Growth inhibition of yeast strains with defined genetic alterations is measured as a screen for potential anti-cancer activity. Selected strains with alterations in DNA damage repair or cell cycle control were exposed to compounds and growth inhibition was measured relative to vehicle treated controls. The strain used in this assay is rad50
Compounds without any hit were thinned out: in the full panel of roughly 79,000, 15% have a hit.
Use 60% as the dividing line for growth inhibition, with the line itself on the rule met side and lower values as rule not met.

# Molecule, Assigned Label
measured = [
    ("CCC(OC(C)=O)C1CC(C(C)C)CCC1C (stereo not drawn)", "rule not met"),
    ("CC(C)C(=O)CC(Sc1ccc(N)cc1)c1ccccc1 (stereo not drawn)", "rule not met"),
    ("Cc1cc(OCc2nc(N)nc(N)c2-c2ccc(Cl)c(Cl)c2)ccc1[N+](=O)[O-]", "rule met"),
    ("CCOP(=O)(OCC)/C(C#N)=C/c1ccc(-c2ccc(F)cc2F)o1", "rule not met"),
    ("CCN(CC)CCCNc1ccc([N+](=O)[O-])c2nc3ccc(OC)cc3c(NCCCN(CC)CC)c12", "rule met"),
]

Query block: Does the molecule CCCCCCCCCCCCCCCCCCN(C)C(COC)COP(=O)([O-])OCC[N+](C)(C)C (stereo not drawn) have recorded growth inhibition that is 60% or more?
Result block: rule met

Query block: Does the molecule "CC(C)N(CCCNc1c2ccccc2nc2cccc([N+](=O)[O-])c12)C(C)C" have recorded growth inhibition that is 60% or more?
Result block: rule met

Query block: Does the molecule "CNCC(C)CNC" have recorded growth inhibition that is 60% or more?
Result block: rule met

Query block: Does the molecule "O=C(CCCN1CCC(Nc2ccc(F)cc2)(c2nnnn2C2CCCCC2)CC1)c1ccc(F)cc1" have recorded growth inhibition that is 60% or more?
Result block: rule not met

Query block: Does the molecule "CC(=O)/C=C/c1cccc([N+](=O)[O-])c1" have recorded growth inhibition that is 60% or more?
Result block: rule met

Query block: Does the molecule "CNC(=O)OCc1c2ccncc2c(C)c2c1[nH]c1ccccc12" have recorded growth inhibition that is 60% or more?
Result block: rule not met

Query block: Does the molecule "O=C(NO)c1coc2ccccc2c1=O" have recorded growth inhibition that is 60% or more?
Result block: rule not met

Query block: Does the molecule "CC1(C)CC(=O)C(/C=N/c2nc(-c3ccc(Br)cc3)cs2)=C(O)C1" have recorded growth inhibition that is 60% or more?
Result block: rule met

Query block: Does the molecule "O=C1Nc2ccc(Br)cc2C1=Nc1ccc(Cl)cc1" have recorded growth inhibition that is 60% or more?
Result block: rule not met

----------
# Assay: NCI Yeast Anticancer Drug Screen. Data for the mlh1 strain (AID 171);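 further: 0% = growth of vehicle-treated control cultures of the same strain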
# Measurement Setup: S. cerevisiae mlh1 strain growth inhibition; at 11.0 µM; active compounds read high
# Method: Growth inhibition of yeast strains with defined genetic alterations is measured as a screen for potential anti-cancer activity. Selected strains with alterations in DNA damage repair or cell cycle control were exposed to compounds and growth inhibition was measured relative to vehicle treated controls. The strain used in this assay is mlh1
About 79,000 compounds went through this panel and 15% of them were active in at least one assay; those are over-represented in the sample as a whole.
Use 20% as the dividing line for growth inhibition, with the line itself on the criterion met side and lower values as criterion not met.

Would you please look over these solved cases?
# Compound, Assigned Label
rows = [
    ("CSC(=S)N/N=C/c1ccccc1", "criterion met"),
    ("O=[N+]([O-])[O][Sn]([O][Sn]([O][N+](=O)[O-])([c]1ccccc1)[c]1ccccc1)([c]1ccccc1)[c]1ccccc1", "criterion not met"),
    ("CCCCCCCN1C(=O)c2ccccc2C1=O", "criterion not met"),
]

# ---- query compound ----
Query block: Does the compound "Cc1ccc([N+](=O)[O-])c2c(NCCC[N+](C)(C)[O-])c3ccccc3nc12" have recorded growth inhibition that is 20% or more?
Result block: criterion not met

----------
# Assay: NCI Yeast Anticancer Drug Screen. Data for the bub3 strain (AID 167)
# Measurement Setup: S. cerevisiae bub3 mutant strain, at 5.0 µM (retest, dose inferred, filed as 0.5), active compounds read high
About 79,000 compounds went through this panel and 15% of them were active in at least one assay; those are over-represented in the sample as a whole.
Experimental Endpoint: growth inhibition (%)
Numbers only, in %.

# Compound, Experimental Endpoint, Value Observed
data = [
    ("CC(=O)O/N=C1C=C/C(=C(/C#N)c2ccccc2)C=C/1C", "growth inhibition", 0),
]

For each listed entry, give its growth inhibition.
1. Cc1c2cc[n+](CCO)cc2c(C)c2c1[nH]c1ccc(O)cc12
2. COc1ccc2c(c1)CCCC(Br)C2=O (centres undefined)
3. COc1cc(C(=O)C=O)cc(OC)c1OC

Result block:
7
-12
-66

----------
# Assay: NCI Yeast Anticancer Drug Screen. Data for the rad14 strain (AID 159);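 further: 0% = growth of vehicle-treated control cultures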
# Measurement Setup: S. cerevisiae rad14 strain growth inhibition; at 33.0 µM
This is part of a sample that, as a whole, favours compounds with a hit. Of some 79,000 tested, about 15% had one in any assay. The source made the active and inactive calls. Rule as the data show it: active = growth inhibition above about 70%; inactive = the rest.
Just give me one of these, please: 1 = active, -1 = inactive

Would you please look over these solved cases?
# Molecule, Assigned Label
measured = [
    ("O=C1Oc2ccccc2C(=O)/C1=C/N1C(=O)N/C(=C\\c2ccccc2Br)C1=O", -1),
    ("CC1CCC(C2=CSC3CCCCC3N2)CC1 (centres undefined)", -1),
]

Query block: Could you please tell me the result logged for "Cc1cccc(/C=N/NC(=S)NC2CCCCC2)n1" in this assay?
Result block: -1

Query block: Could you please tell me the result logged for "O=c1c2ccccc2nc(-c2cccc([N+](=O)[O-])c2)n1O" in this assay?
Result block: 1

These measurements were taken from PubChem BioAssay (NCI).
